Numbers sourced from patent US20250250357A1.

# reported competition rate; entries follow
Target: T1, human MSLN-FL-his protein (human, UniProt Q13421 296-580)
T1 construct: made in HEK293E cells, purified on nickel column; also called hMSLN-FL-his; human MSLN full-length protein; not shown: His tag
T1 sequence (Q13421 other isoform, or with tags, fused parts or gaps): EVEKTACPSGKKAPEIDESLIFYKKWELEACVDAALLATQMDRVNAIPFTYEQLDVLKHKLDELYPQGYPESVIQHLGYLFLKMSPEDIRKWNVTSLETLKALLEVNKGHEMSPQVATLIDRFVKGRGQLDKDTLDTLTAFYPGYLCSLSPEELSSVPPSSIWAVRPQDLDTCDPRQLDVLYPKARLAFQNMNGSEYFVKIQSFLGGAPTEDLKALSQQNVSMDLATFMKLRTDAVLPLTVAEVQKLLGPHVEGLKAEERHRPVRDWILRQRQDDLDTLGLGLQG
Experiment: competitive ELISA; row F4-94.15; also: test concentration or dose not given here
Provide only the numeric value, understood in %.

Record excerpt, results attached:
binder="S009-F6-76.1 (antibody, human IgG1, kappa, V domains shown, human-murine chimeric antibody, human IgG1/kappa constant regions) VH: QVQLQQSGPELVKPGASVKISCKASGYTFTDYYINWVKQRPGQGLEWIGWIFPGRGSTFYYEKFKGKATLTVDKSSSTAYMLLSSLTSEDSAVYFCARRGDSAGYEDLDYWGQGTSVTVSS VL: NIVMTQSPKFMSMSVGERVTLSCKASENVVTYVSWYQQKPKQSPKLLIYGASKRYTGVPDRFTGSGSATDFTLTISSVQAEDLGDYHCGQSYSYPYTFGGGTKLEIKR" quantitative_result=94
binder="S009-F2-56.12 (antibody, human IgG1, kappa, V domains shown, human-murine chimeric antibody, human IgG1/kappa constant regions) VH: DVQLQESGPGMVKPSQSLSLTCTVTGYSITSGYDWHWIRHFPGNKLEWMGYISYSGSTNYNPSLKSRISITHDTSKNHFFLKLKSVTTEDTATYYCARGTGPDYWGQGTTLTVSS VL: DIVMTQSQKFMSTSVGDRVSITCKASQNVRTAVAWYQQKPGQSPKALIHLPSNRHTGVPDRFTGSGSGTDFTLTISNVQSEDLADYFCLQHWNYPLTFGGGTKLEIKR" quantitative_result=87
binder="S009-F4-94.15 (antibody, human IgG1, kappa, V domains shown, human-murine chimeric antibody, human IgG1/kappa constant regions) VH: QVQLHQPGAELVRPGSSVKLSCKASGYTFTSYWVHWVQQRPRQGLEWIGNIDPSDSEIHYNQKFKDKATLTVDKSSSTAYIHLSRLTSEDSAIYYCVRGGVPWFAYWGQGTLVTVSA VL: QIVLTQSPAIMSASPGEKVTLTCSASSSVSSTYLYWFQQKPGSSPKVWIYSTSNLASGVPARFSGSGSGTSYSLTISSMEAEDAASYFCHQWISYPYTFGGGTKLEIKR" quantitative_result=100

// switching to the query binder
Quickly give me recorded competition rate for S009-F6-62.5 (antibody, human IgG1, kappa, V domains shown, human-murine chimeric antibody, human IgG1/kappa constant regions) VH: QVQLQQPGTELVKPGASVKLSCRASGYTFTAYWMHWVKQRPGQGLEWIGNINPSNGGTDFNEKFKSKATLTVDKSSSTAYMQLSSLTSEDSAVYYCARGRGYFDVWGTGTTVTVSS VL: DILLTQSPAILSVSPGERVSFSCRASKNIGTSIHWYQQRTNGSPRLLIKYASESISGIPSRFSGSGSGTDFTLNINSVESEDIADYYCQQSNSWPTLTFGAGTKLELKR
25
